biological target: CDK6/cyclinD3 (Homo sapiens); construct: purchased Carna Biosciences 04-107; test: Cyclin-dependent kinase activity assay (continuous ATP coupling assay), CDK6/cyclinD3; type: biochemical; conditions: CDK6/cyclinD3 25 nM, ATP 500 μM, Rb copeptide 500 μM, 15 min preincubation, pH 7.5, 1% DMSO
Sequence (Q00534 whole entry): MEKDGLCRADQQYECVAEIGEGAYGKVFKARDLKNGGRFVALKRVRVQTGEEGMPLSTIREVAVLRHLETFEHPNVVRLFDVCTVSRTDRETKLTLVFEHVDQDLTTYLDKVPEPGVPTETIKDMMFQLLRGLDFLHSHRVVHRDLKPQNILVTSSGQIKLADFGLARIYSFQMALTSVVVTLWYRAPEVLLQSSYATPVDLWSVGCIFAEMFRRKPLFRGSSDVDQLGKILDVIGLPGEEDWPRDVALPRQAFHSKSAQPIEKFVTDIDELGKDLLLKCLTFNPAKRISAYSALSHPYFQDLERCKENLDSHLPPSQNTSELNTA
Sequence (P30281 whole entry partner): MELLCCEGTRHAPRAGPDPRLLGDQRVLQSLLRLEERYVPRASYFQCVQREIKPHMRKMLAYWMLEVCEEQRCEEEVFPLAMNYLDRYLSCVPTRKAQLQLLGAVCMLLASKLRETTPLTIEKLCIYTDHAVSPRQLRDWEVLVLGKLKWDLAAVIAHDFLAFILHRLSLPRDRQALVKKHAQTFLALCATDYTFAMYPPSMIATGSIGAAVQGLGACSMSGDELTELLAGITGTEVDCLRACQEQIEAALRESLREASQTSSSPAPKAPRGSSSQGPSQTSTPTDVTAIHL
pIC50: −log10 of the molar value.
metric-name: pIC50

Please review the following examples before continuing.
1. CC(O)CNS(=O)(=O)c1ccc(Nc2ncc(C(F)(F)F)c(-n3cccn3)n2)cc1 (stereo not shown) [Example 110]	≤ 7.00
2. CNS(=O)(=O)c1ccc(Nc2ncc(C(F)(F)F)c(-n3cc(N4CCCC4)cn3)n2)cc1 [Example 87]	≤ 7.00
3. CNS(=O)(=O)c1ccc(Nc2ncc(C(F)(F)F)c(-n3nccc3C3CC3)n2)cc1 [Example 57]	≤ 7.00
4. CNS(=O)(=O)c1ccc(Nc2ncc(C(F)(F)F)c(-n3cc(N4CCN(C)CC4)cn3)n2)cc1 [Example 83]	≤ 7.00
5. COCCNS(=O)(=O)c1ccc(Nc2ncc(C(F)(F)F)c(-n3cccn3)n2)cc1 [Example 127]	≤ 7.00
6. O=S(=O)(NCCO)c1ccc(Nc2ncc(C(F)F)c(-n3cccn3)n2)cc1 [Example 116]	≤ 7.00

Provide pIC50 for all items below, preserving their order.
1. CNS(=O)(=O)c1ccc(Nc2ncc(C(F)(F)F)c(-n3cc(C4CC4)cn3)n2)cc1 [Example 50]
2. CNS(=O)(=O)c1ccc(Nc2ncc(C(F)(F)F)c(-n3cc([C@H]4C[C@@H](O)C4)cn3)n2)cc1 [Example 103]
3. Cc1cc(Nc2ncc(C(F)(F)F)c(-n3cccn3)n2)ccc1S(=O)(=O)NCCO [Example 125]
4. CNS(=O)(=O)c1ccc(Nc2ncc(C(F)(F)F)c(-n3cc(C4CCN(C)C4)cn3)n2)cc1 (single isomer, unassigned) [Example 96]
5. CNS(=O)(=O)c1ccc(Nc2ncc(C(F)(F)F)c(-n3cc(C4CCOC4)cn3)n2)cc1 (single isomer, unassigned) [Example 89]
6. CC(C)(O)CNS(=O)(=O)c1ccc(Nc2ncc(C(F)(F)F)c(-n3cccn3)n2)cc1 [Example 111]

Result block:
1: 7.00 to 8.00; 2: 7.00 to 8.00; 3: ≤ 7.00; 4: 7.00 to 8.00; 5: 7.00 to 8.00; 6: ≤ 7.00

Provide pIC50 for all items below, preserving their order.
1. CNS(=O)(=O)c1ccc(Nc2ncc(Br)c(-n3cc(CC(C)(C)O)cn3)n2)cc1 [Example 68]
2. O=C(O)CNS(=O)(=O)c1ccc(Nc2ncc(C(F)(F)F)c(-n3cccn3)n2)cc1 [Example 138]
3. CNS(=O)(=O)c1ccc(Nc2ncc(C(F)(F)F)c(-n3cc(C(F)(F)F)cn3)n2)cc1 [Example 47]
4. CNS(=O)(=O)c1ccc(Nc2ncc(C(F)(F)F)c(-n3cc(C4CCN(C)C4)cn3)n2)cc1 (single isomer, unassigned) [Example 95]

Result block:
1. 7.00 to 8.00
2. ≤ 7.00
3. ≤ 7.00
4. ≤ 7.00

* * *

Provide the reported pIC50 of each item.
target: CDK2/cyclinE1 (Homo sapiens); test: Cyclin-dependent kinase activity assay (continuous ATP coupling assay), CDK2/cyclinE1; settings: CDK2/cyclinE1 5 nM, ATP 300 μM, Rb copeptide 100 μM, 15 min preincubation, pH 7.5, 1% DMSO
pIC50: −log10 of the molar value.

Please review the following examples before continuing.
1) CNS(=O)(=O)c1ccc(Nc2ncc(C(F)(F)F)c(-n3cc(N4CCNCC4)cn3)n2)cc1	≥ 8.00
2) CNS(=O)(=O)c1ccc(Nc2ncc(C(F)(F)F)c(-n3cc(C4CCNC4)cn3)n2)cc1 (single isomer, unassigned)	≥ 8.00
3) Cc1cc(Nc2ncc(C(F)(F)F)c(-n3cccn3)n2)ccc1S(=O)(=O)NCCO	7.00 to 8.00
4) [2H]C([2H])([2H])NS(=O)(=O)c1ccc(Nc2ncc(C(F)(F)F)c(-n3cc(CC(C)(C)O)cn3)n2)cc1	≥ 8.00
5) CC(C)(O)Cc1cnn(-c2nc(N[C@H]3CCOC[C@@H]3O)ncc2C(F)(F)F)c1 (single isomer, unassigned)	≤ 7.00
6) CNS(=O)(=O)c1ccc(Nc2ncc(Br)c(-n3cccn3)n2)cc1	≥ 8.00
7) CS(=O)(=O)N1CCC(Nc2ncc(C(F)(F)F)c(-n3cccn3)n2)CC1	≥ 8.00
8) CNS(=O)(=O)c1ccc(Nc2ncc(C(F)(F)F)c(-n3cc(C)cn3)n2)cc1	≥ 8.00

Provide pIC50 for all items below, preserving their order.
1. CNS(=O)(=O)c1ccc(Nc2ncc(C(F)(F)F)c(-n3cc([C@H]4C[C@@H](O)C4)cn3)n2)cc1
2. CCS(=O)(=O)N1CC2(CC(Nc3ncc(C(F)(F)F)c(-n4cccn4)n3)C2)C1

Result block:
1. ≥ 8.00
2. ≤ 7.00
